Species: Bos taurus
RUN_DESCRIPTION: Effect on bovine brain microtubule depolymerization assessed as decrease in absorbance at wavelength 340 nm after 15 mins
Calls of active or inactive are those of the source. The calls are words filed in the database; no cut-off is given here.
Outcomes you can answer with include only these: 1 (yes) (active), 0 (no) (inactive)

Worked set:
smiles_structure=CC(=O)O[C@H]1C(=O)[C@@]2(C)[C@H]([C@H](OC(=O)c3ccccc3)[C@]3(O)C[C@H](OC(=O)[C@H](O)[C@@H](NC(=O)c4ccccc4)c4ccccc4)C(C)=C1C3(C)C)[C@]1(OC(C)=O)CO[C@@H]1C[C@@H]2O group_label="0 (no)"
smiles_structure=COc1cc(OC)c(OC)cc1CCc1cn(Cc2ccccc2)c2nc(N)nc(C)c12 group_label="0 (no)"

Challenge: Query: recorded result category for COc1cc(CCc2cn(Cc3ccccc3)c3nc(N)nc(C)c23)c(OC)c(OC)c1OC in this test
Response given: 1 (yes)

Challenge: Query: recorded result category for Cc1nc(N)nc2c1c(CCc1ccccc1Cl)cn2Cc1ccccc1 in this test
Response given: 0 (no)

Challenge: Query: recorded result category for COc1cccc(OC)c1CCc1cn(Cc2ccccc2)c2nc(N)nc(C)c12 in this test
Response given: 1 (yes)

Challenge: Query: recorded result category for COc1cc(CCc2cn(Cc3ccccc3)c3nc(N)nc(C)c23)cc(OC)c1OC in this test
Response given: 1 (yes)

Challenge: Query: recorded result category for COc1ccc(CCc2cn(Cc3ccccc3)c3nc(N)nc(C)c23)cc1OC in this test
Response given: 0 (no)

Challenge: Query: recorded result category for CC[C@]1(O)C[C@@H]2CN(CCc3c([nH]c4ccccc34)[C@@](C(=O)OC)(c3cc4c(cc3OC)N(C)[C@H]3[C@@](O)(C(=O)OC)[C@H](OC(C)=O)[C@]5(CC)C=CCN6CC[C@]43[C@@H]65)C2)C1 in this test
Response given: 1 (yes)

Challenge: Query: recorded result category for COc1ccc(CCc2cn(Cc3ccccc3)c3nc(N)nc(C)c23)c(OC)c1 in this test
Response given: 0 (no)

Challenge: Query: recorded result category for COc1cc(CCc2cn(Cc3ccccc3)c3nc(N)nc(C)c23)c(OC)c(OC)c1 in this test
Response given: 0 (no)

Challenge: Query: recorded result category for COc1ccc(CCc2cn(Cc3ccccc3)c3nc(N)nc(C)c23)c(OC)c1OC in this test
Response given: 1 (yes)

Challenge: Query: recorded result category for CC[C@]1(O)C[C@H]2CN(CCc3c([nH]c4ccccc34)[C@@](C(=O)OC)(c3cc4c(cc3OC)N(C=O)[C@H]3[C@@](O)(C(=O)OC)[C@H](OC(C)=O)[C@]5(CC)C=CCN6CC[C@]43[C@@H]65)C2)C1 in this test
Response given: 1 (yes)

Challenge: Query: recorded result category for COc1cc(CCc2cn(Cc3ccccc3)c3nc(N)nc(C)c23)cc(OC)c1 in this test
Response given: 0 (no)

---

RUN_DESCRIPTION: Cytotoxic activity against Pgp-deficient human MCF7/VP cells expressing MRP1 after 48 hrs by sulforhodamine B assay
Format: functional, cell-based
Assignment: determine reported IC50 for the given molecules.
One number for each entry, in µM.

molecule=COc1cc(CCc2cn(Cc3ccccc3)c3nc(N)nc(C)c23)cc(OC)c1 observed_result=17
molecule=COc1cc(OC)c(OC)cc1CCc1cn(Cc2ccccc2)c2nc(N)nc(C)c12 observed_result=15
molecule="CC[C@]1(O)C[C@@H]2CN(CCc3c([nH]c4ccccc34)[C@@](C(=O)OC)(c3cc4c(cc3OC)N(C)[C@H]3[C@@](O)(C(=O)OC)[C@H](OC(C)=O)[C@]5(CC)C=CCN6CC[C@]43[C@@H]65)C2)C1 [VINBLASTINE]" observed_result=0.003
molecule=COc1ccccc1CCc1cn(Cc2ccccc2)c2nc(N)nc(C)c12 observed_result=2.6
molecule="CC[C@]1(O)C[C@H]2CN(CCc3c([nH]c4ccccc34)[C@@](C(=O)OC)(c3cc4c(cc3OC)N(C=O)[C@H]3[C@@](O)(C(=O)OC)[C@H](OC(C)=O)[C@]5(CC)C=CCN6CC[C@]43[C@@H]65)C2)C1 [VINCRISTINE]" observed_result=0.0093
molecule=COc1cccc(OC)c1CCc1cn(Cc2ccccc2)c2nc(N)nc(C)c12 observed_result=20

// for each molecule in input: emit IC50
1. COc1ccc(CCc2cn(Cc3ccccc3)c3nc(N)nc(C)c23)c(OC)c1OC
2. COc1cc(CCc2cn(Cc3ccccc3)c3nc(N)nc(C)c23)cc(OC)c1OC
3. COc1ccc(CCc2cn(Cc3ccccc3)c3nc(N)nc(C)c23)c(OC)c1
4. Cc1nc(N)nc2c1c(CCc1ccccc1Cl)cn2Cc1ccccc1
5. CC(=O)O[C@H]1C(=O)[C@@]2(C)[C@H]([C@H](OC(=O)c3ccccc3)[C@]3(O)C[C@H](OC(=O)[C@H](O)[C@@H](NC(=O)c4ccccc4)c4ccccc4)C(C)=C1C3(C)C)[C@]1(OC(C)=O)CO[C@@H]1C[C@@H]2O [PACLITAXEL]
6. COc1cc(CCc2cn(Cc3ccccc3)c3nc(N)nc(C)c23)c(OC)c(OC)c1OC
7. COc1cc(CCc2cn(Cc3ccccc3)c3nc(N)nc(C)c23)c(OC)c(OC)c1
8. COc1ccc(CCc2cn(Cc3ccccc3)c3nc(N)nc(C)c23)cc1OC

Response given:
[20, 0.25, 12, 15, 0.0028, 9, 63, 7]

---

EXPERIMENTAL_TARGET: Multidrug resistance-associated protein 1 (Homo sapiens)
Sequence (P33527 whole entry): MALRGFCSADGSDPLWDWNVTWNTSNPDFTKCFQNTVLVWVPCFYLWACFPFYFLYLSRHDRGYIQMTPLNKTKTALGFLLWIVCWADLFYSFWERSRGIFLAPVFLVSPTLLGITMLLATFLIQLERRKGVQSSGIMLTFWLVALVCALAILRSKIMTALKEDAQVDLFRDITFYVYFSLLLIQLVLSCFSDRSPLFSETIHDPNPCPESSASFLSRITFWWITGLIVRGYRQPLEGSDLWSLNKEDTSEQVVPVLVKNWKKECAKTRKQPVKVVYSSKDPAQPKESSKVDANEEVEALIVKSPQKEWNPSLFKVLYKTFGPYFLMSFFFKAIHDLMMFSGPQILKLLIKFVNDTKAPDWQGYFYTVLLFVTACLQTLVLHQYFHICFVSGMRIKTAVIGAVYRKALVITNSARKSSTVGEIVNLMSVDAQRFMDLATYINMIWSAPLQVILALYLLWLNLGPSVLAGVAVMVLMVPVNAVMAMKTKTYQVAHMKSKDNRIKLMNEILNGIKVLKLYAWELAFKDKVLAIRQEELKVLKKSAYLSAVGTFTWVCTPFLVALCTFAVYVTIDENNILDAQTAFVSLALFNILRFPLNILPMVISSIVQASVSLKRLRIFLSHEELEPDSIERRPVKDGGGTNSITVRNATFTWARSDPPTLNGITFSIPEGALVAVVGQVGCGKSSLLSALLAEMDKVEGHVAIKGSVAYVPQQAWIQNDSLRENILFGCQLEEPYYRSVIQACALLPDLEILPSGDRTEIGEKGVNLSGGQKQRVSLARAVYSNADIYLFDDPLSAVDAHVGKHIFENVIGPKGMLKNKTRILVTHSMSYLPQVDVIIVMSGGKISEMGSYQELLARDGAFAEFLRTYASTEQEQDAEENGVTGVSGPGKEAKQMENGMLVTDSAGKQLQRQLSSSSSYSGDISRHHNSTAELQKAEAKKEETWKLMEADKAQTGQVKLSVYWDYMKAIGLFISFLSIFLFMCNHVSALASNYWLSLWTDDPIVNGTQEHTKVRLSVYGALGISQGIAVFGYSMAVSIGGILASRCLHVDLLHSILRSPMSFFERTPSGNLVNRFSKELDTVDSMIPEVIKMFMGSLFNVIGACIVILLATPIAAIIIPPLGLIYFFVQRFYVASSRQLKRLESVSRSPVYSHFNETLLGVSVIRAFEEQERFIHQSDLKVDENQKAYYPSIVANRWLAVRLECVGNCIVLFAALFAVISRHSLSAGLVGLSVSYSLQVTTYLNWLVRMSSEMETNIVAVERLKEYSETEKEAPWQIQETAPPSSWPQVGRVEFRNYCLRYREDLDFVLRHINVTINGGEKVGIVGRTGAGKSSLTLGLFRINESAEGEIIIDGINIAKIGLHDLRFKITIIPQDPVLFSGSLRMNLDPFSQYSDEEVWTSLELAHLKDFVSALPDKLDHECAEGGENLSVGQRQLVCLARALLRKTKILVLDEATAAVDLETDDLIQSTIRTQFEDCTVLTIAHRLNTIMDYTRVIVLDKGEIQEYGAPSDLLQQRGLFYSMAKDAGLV
RUN_DESCRIPTION: Reversal of MRP1-mediated multidrug resistance in human MCF7/VP cells assessed as enhancement of cytotoxicity of vincristine after 48 hrs by sulforhodamine B assay
Format: cell-based
MEASUREMENT_NAME: Activity

Please review the entries below; each comes with its answer.
smiles_structure=COc1cc(OC)c(OC)cc1CCc1cn(Cc2ccccc2)c2nc(N)nc(C)c12 observed_result="Not Active"
smiles_structure=COc1cc(CCc2cn(Cc3ccccc3)c3nc(N)nc(C)c23)cc(OC)c1 observed_result=Active
smiles_structure=COc1cc(CCc2cn(Cc3ccccc3)c3nc(N)nc(C)c23)cc(OC)c1OC observed_result="Not Active"
smiles_structure=COc1ccc(CCc2cn(Cc3ccccc3)c3nc(N)nc(C)c23)cc1OC observed_result="Not Active"

// for each compound in input: emit Activity
1. Cc1nc(N)nc2c1c(CCc1ccccc1Cl)cn2Cc1ccccc1
2. COc1cc(CCc2cn(Cc3ccccc3)c3nc(N)nc(C)c23)c(OC)c(OC)c1OC
3. COc1ccc(CCc2cn(Cc3ccccc3)c3nc(N)nc(C)c23)c(OC)c1OC
4. COc1cc(CCc2cn(Cc3ccccc3)c3nc(N)nc(C)c23)c(OC)c(OC)c1

Response given:
Not Active
Not Active
Active
Active

// for each compound in input: emit Activity
1. COc1ccc(CCc2cn(Cc3ccccc3)c3nc(N)nc(C)c23)c(OC)c1
2. COc1ccccc1CCc1cn(Cc2ccccc2)c2nc(N)nc(C)c12
3. COc1cccc(OC)c1CCc1cn(Cc2ccccc2)c2nc(N)nc(C)c12

Response given:
["Not Active", "Not Active", "Not Active"]

---

RUN_DESCRIPTION: Cytotoxic activity against drug-resistant […]-deficient human NCI/ADR cells expressing Pgp after 48 hrs by sulforhodamine B assay
Format: functional, cell-based
APPLIED_CONDITIONS: NCI/ADR-RES
So basically, if IC50 comes in under 10 µM it's met, and if it's 10 µM or more it's not met.

compound=COc1cc(CCc2cn(Cc3ccccc3)c3nc(N)nc(C)c23)cc(OC)c1OC group_label=met

Challenge: Hello, I'm reviewing records and need to know if IC50 of COc1ccc(CCc2cn(Cc3ccccc3)c3nc(N)nc(C)c23)c(OC)c1OC is below 10 µM. Could you check?
Response given: not met

Challenge: Hello, I'm reviewing records and need to know if IC50 of COc1cc(CCc2cn(Cc3ccccc3)c3nc(N)nc(C)c23)cc(OC)c1 is below 10 µM. Could you check?
Response given: not met

Challenge: Hello, I'm reviewing records and need to know if IC50 of CC[C@]1(O)C[C@@H]2CN(CCc3c([nH]c4ccccc34)[C@@](C(=O)OC)(c3cc4c(cc3OC)N(C)[C@H]3[C@@](O)(C(=O)OC)[C@H](OC(C)=O)[C@]5(CC)C=CCN6CC[C@]43[C@@H]65)C2)C1 [VINBLASTINE] is below 10 µM. Could you check?
Response given: not met

Challenge: Hello, I'm reviewing records and need to know if IC50 of CC(=O)O[C@H]1C(=O)[C@@]2(C)[C@H]([C@H](OC(=O)c3ccccc3)[C@]3(O)C[C@H](OC(=O)[C@H](O)[C@@H](NC(=O)c4ccccc4)c4ccccc4)C(C)=C1C3(C)C)[C@]1(OC(C)=O)CO[C@@H]1C[C@@H]2O [PACLITAXEL] is below 10 µM. Could you check?
Response given: met

Challenge: Hello, I'm reviewing records and need to know if IC50 of COc1ccc(CCc2cn(Cc3ccccc3)c3nc(N)nc(C)c23)cc1OC is below 10 µM. Could you check?
Response given: met
